Ref: paper PMC5041959

Target: UniProt P22455
Test: Biochemical kinase profiling (33PanQinase radiometric assay)
Settings: read-out: FGFR4 IC50; ATP at apparent Km
endpoint: pIC50
One number for each entry, as −log10 of the molar value.

Dear reader, for each entry below, please note its pIC50.
1. COc1cc(OC)cc(-c2cc3cnc(N)nc3nc2NC(=O)NC(C)(C)C)c1
2. CCN(CC)CCCCNc1ncc2cc(-c3c(Cl)cccc3Cl)c(NC(=O)NC(C)(C)C)nc2n1
3. Cc1ccc(-c2nn(C(C)(C)C)c3ncnc(N)c23)cc1

Response:
6.31
6.18
6.21

====

Target: FGFR4 (Homo sapiens)
Sequence (P22455 22-802): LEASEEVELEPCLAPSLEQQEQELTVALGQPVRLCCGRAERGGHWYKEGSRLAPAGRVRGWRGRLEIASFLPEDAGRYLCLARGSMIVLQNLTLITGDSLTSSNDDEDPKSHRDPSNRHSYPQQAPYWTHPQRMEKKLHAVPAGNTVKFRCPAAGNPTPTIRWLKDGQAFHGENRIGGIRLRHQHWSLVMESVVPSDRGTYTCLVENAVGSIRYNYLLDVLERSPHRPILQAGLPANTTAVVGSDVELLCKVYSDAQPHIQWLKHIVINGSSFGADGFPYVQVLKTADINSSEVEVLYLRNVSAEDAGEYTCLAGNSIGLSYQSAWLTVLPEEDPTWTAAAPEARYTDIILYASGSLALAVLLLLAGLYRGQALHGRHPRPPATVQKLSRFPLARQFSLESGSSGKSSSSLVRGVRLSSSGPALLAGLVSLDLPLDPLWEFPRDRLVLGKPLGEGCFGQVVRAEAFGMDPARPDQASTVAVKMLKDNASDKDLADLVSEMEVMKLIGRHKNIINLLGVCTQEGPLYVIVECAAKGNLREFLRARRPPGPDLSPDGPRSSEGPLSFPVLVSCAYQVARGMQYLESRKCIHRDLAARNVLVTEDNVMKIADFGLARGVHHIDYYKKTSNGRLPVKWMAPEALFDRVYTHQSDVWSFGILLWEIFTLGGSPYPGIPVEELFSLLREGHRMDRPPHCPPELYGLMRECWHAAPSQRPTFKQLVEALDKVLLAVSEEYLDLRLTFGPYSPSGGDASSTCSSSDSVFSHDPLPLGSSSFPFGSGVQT
Test: Biochemical kinase profiling (33PanQinase radiometric assay)
endpoint: pIC50
Answers are plain numbers, as −log10 of the molar value.

> print(dat)
                         structure.notation  endpoint  measured.number
1  CCN(CC)CCCCNc1ncc2cc(-c3cc(OC)cc(OC)c3)c(NC(=O)NC(C)(C)C)nc2n1     pIC50             6.38

Could you now look at the following compound, please?
Request: pIC50 for CCN(CC)CCOc1ccc(Nc2ncc3cc(-c4c(Cl)cccc4Cl)c(=O)n(C)c3n2)cc1 ?
Response: 7.26

====

Test system: Py2T cells
Assay: High-content microscopy EMT assay in TGFβ-treated Py2T breast cancer cells
Type: cell-based, murine
Details: Mus musculus, 96 h; Py2T, TGFβ plus compound, 4 days; read-out: FA IC50 (focal adhesions)
So I've got a bunch of compounds here, and I need their IC50 values.
One number for each entry, in nM.

Answered cases to consult:
> print(dat)
                                   compound  subject.of.test  measured.number
1  CC1=C(C(=O)Nc2cc3cn[nH]c3cc2F)C(c2ccc(C(F)(F)F)cc2)CC(=O)N1 (stereo not drawn) [GSK429286A]       Py2T cells              245
2  NC(=O)c1ccc(-c2nc(-c3ccc4c(c3)OCO4)c(-c3ccccn3)[nH]2)cc1       Py2T cells              156

Request: Entry under review: CN(C)CCOc1cc(-c2cn[nH]c2)ccc1NC(=O)C1COc2ccccc2O1 (stereo not drawn) . Reported IC50?
Response: 415

====

Kindly supply the reported pIC50 values for the records listed here.
Biological target: ROCK2 (Homo sapiens)
Sequence (O75116 whole entry): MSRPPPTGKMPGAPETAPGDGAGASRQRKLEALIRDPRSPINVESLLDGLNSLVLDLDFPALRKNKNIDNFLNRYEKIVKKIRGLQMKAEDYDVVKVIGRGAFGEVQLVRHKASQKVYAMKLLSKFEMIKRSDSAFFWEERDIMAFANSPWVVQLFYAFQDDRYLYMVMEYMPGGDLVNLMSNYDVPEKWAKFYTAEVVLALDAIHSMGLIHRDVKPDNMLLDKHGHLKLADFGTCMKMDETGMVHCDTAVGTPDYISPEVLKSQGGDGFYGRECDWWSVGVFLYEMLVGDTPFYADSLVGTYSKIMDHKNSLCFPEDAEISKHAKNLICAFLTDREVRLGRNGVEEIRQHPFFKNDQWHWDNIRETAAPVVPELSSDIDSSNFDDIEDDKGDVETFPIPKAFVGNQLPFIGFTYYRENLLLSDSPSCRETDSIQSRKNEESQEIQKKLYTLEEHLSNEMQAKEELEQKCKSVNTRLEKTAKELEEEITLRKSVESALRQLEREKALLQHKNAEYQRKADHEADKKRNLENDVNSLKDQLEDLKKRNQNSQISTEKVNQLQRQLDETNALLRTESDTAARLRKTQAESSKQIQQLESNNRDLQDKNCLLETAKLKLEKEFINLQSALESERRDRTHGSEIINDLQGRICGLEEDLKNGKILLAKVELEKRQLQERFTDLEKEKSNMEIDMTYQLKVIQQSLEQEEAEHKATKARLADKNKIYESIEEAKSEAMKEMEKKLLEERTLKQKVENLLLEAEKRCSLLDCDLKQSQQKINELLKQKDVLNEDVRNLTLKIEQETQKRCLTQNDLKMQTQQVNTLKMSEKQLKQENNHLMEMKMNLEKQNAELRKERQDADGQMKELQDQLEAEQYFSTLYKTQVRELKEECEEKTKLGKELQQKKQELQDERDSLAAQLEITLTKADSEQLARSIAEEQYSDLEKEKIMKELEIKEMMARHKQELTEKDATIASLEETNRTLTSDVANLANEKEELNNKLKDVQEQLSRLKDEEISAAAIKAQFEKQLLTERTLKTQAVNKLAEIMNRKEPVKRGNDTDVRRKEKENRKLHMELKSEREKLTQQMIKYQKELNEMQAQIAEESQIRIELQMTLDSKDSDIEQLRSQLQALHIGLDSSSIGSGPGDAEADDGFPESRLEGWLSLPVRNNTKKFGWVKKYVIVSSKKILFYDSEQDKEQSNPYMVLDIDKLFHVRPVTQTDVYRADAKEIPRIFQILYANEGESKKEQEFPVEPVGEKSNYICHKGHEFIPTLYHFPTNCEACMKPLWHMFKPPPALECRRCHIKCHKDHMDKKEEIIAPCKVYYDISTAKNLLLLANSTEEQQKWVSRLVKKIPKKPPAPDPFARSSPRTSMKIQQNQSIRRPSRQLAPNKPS
Assay: Biochemical kinase profiling (33PanQinase radiometric assay)
Conditions: read-out: ROCK2 IC50; ATP at apparent Km
pIC50: −log10 of the molar value.

Sample answers from the record:
> print(dat)
                         structure.notation  endpoint  result
1  NC(=O)c1ccc(NC(=O)NCc2cccc(C(=O)Nc3ccc4c(c3)CNCC4)c2)cc1     pIC50    7.75
2  CCN(CC)CCCCNc1ncc2cc(-c3c(Cl)cccc3Cl)c(NC(=O)NC(C)(C)C)nc2n1     pIC50  < 5.00

Attention now shifts to the item below.
Request: Report pIC50 for COc1cc(OC)cc(-c2cc3cnc(N)nc3nc2NC(=O)NC(C)(C)C)c1 please.
Response: < 5.00

====

Target: FGFR2 (Homo sapiens)
Sequence (P21802 22-821): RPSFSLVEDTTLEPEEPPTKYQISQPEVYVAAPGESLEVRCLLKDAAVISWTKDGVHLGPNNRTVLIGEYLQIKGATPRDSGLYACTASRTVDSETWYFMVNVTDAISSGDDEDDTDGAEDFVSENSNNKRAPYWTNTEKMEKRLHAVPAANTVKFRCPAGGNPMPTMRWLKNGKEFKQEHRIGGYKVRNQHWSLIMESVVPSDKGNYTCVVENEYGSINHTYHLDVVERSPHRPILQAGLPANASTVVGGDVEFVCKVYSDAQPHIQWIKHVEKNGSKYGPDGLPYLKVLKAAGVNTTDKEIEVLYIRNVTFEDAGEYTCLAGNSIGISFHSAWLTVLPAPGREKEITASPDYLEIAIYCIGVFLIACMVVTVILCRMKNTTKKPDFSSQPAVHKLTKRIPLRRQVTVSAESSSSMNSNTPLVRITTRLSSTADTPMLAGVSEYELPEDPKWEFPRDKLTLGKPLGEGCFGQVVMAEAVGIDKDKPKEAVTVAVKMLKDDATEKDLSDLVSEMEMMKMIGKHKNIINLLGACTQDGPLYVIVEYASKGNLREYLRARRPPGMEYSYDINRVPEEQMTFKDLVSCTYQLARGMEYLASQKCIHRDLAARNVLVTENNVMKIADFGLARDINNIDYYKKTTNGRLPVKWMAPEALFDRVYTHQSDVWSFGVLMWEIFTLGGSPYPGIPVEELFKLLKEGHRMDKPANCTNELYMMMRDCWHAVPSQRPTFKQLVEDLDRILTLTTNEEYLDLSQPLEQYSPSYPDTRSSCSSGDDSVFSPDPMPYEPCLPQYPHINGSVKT
Assay: Biochemical kinase profiling (33PanQinase radiometric assay)
Details: read-out: FGFR2 IC50; ATP at apparent Km
endpoint: pIC50
Give bare numbers, as −log10 of the molar value.

> print(dat)
                                   molecule  measured.number
1  Cc1cccc(-c2[nH]ncc2-c2ccc3ncccc3n2)n1 [RepSox]             5.32
2  COc1cc(OC)cc(-c2cc3cnc(N)nc3nc2NC(=O)NC(C)(C)C)c1 [PD-166866]             7.99
3  Cc1[nH]c(/C=C2\C(=O)Nc3ccccc32)c(C)c1CCC(=O)O [TSU-68]             6.23

I would be grateful if you could provide pIC50 for each of the following entries.
1. Cc1ccc(-c2nn(C(C)(C)C)c3ncnc(N)c23)cc1 [PP1]
2. CCN(CC)CCCCNc1ncc2cc(-c3c(Cl)cccc3Cl)c(NC(=O)NC(C)(C)C)nc2n1 [PD-161570]

Response:
1: 6.34; 2: 8.19

====

Target: EGFR (Homo sapiens)
Assay: Biochemical kinase profiling (33PanQinase radiometric assay)
endpoint: pIC50
Answers are plain numbers, as −log10 of the molar value.

Request: Recorded pIC50 for COCCOc1ccc2c(c1)ncn2-c1ccc2cccc(N3CCC(N)CC3)c2n1 [CP673451] with EGFR (Homo sapiens), please?
Response: 5.67

====

Target: SRC (Homo sapiens)
Sequence (P12931 whole entry): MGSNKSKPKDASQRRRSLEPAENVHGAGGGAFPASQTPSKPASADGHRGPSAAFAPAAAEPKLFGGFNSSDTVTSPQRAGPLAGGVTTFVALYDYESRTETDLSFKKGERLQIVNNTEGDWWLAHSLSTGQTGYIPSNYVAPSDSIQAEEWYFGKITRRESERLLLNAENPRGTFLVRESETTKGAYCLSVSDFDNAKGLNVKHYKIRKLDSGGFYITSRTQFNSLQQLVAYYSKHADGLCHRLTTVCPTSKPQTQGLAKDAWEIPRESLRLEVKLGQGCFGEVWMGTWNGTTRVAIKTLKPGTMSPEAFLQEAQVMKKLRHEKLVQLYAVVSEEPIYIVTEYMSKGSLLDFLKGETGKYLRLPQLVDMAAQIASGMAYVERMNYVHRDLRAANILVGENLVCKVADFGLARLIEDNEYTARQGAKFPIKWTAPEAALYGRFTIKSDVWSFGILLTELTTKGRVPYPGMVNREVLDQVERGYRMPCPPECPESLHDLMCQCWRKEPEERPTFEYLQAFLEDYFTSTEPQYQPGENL
Test: Biochemical kinase profiling (33PanQinase radiometric assay)
Details: read-out: SRC IC50; ATP at apparent Km
endpoint: pIC50
Give bare numbers, as −log10 of the molar value.

# example entries with known answers
> print(dat)
                                   molecule  measured.number
1     Cc1cccc(-c2[nH]ncc2-c2ccc3ncccc3n2)n1             5.21
2  Cc1cccc(-c2[nH]c(C(C)(C)C)nc2-c2ccc3nccnc3c2)n1             5.25
3  CCN(CC)CCCCNc1ncc2cc(-c3c(Cl)cccc3Cl)c(NC(=O)NC(C)(C)C)nc2n1             8.28

Request: Any idea what pIC50 came out for Cc1ccc2c(c1)C(=O)C1(O)CCN(c3ccccc3)C1=N2 (stereo not shown) on SRC (Homo sapiens)?
Response: 5.36

====

Target: FGFR2 (Homo sapiens)
Test: Biochemical kinase profiling (33PanQinase radiometric assay)
Assign pIC50 to each entry below.
Numbers only, as −log10 of the molar value.

> print(dat)
                         structure.notation  endpoint  measured.number
1  COCCOc1ccc2c(c1)ncn2-c1ccc2cccc(N3CCC(N)CC3)c2n1     pIC50             6.00

For the next question, use this compound.
Request: Can you look up the measured pIC50 of CCN(CC)CCOc1ccc(Nc2ncc3cc(-c4c(Cl)cccc4Cl)c(=O)n(C)c3n2)cc1 for me?
Response: 8.74

====

Test system: NMuMG cells
Test: High-content microscopy EMT screen in TGFβ-treated NMuMG cells (FA, SF, FN, cell count)
Type: cell-based, murine
Conditions: NMuMG; mean of IC50 values obtained for FA, SF, FN; read-out: EMT (FA/SF/FN) combined IC50
endpoint: pIC50
Numbers only, as −log10 of the molar value.

Provide each entry's pIC50 from the list below.
1. Cc1ccc(-c2nn(C(C)(C)C)c3ncnc(N)c23)cc1
2. Cc1cccc(-c2[nH]c(C(C)(C)C)nc2-c2ccc3nccnc3c2)n1
3. CCN(CC)CCCCNc1ncc2cc(-c3c(Cl)cccc3Cl)c(NC(=O)NC(C)(C)C)nc2n1

Response:
1: 5.93; 2: 6.59; 3: 6.16

====

Biological target: PDGFRA (Homo sapiens, UniProt P16234)
Sequence (P16234 24-1089): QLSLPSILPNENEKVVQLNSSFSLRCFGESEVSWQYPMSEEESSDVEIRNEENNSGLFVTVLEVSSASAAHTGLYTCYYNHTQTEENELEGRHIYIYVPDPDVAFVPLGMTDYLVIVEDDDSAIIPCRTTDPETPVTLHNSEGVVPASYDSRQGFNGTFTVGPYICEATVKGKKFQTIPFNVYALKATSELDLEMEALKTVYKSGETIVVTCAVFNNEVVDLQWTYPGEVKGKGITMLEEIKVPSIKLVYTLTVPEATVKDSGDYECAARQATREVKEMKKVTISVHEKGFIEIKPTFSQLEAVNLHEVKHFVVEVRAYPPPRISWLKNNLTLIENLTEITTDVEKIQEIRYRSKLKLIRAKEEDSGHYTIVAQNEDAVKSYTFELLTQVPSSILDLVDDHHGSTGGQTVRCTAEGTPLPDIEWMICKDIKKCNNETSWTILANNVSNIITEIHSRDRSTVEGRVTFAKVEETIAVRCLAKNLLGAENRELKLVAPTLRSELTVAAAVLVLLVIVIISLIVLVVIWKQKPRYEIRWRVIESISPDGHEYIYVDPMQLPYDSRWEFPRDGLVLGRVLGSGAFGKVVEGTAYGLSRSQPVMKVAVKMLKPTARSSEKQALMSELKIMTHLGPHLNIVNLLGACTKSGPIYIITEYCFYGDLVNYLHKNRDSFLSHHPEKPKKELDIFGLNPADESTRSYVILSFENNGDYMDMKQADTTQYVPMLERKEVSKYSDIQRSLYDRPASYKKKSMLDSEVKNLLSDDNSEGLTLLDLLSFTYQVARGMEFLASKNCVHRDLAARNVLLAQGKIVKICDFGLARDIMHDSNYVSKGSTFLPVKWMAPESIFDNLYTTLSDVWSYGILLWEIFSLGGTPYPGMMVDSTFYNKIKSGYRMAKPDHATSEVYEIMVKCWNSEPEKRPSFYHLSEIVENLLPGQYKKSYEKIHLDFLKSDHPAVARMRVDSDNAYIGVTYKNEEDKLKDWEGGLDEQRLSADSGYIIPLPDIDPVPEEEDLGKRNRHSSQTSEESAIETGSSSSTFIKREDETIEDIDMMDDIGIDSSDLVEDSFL
Assay: Biochemical kinase profiling (33PanQinase radiometric assay)
Settings: read-out: PDGFRA IC50; ATP at apparent Km
endpoint: pIC50
Answers are plain numbers, as −log10 of the molar value.

Worked examples follow.
> print(dat)
                                   compound  measured.number
1  Cc1ccc(-c2nn(C(C)(C)C)c3ncnc(N)c23)cc1 [PP1]             5.43
2  CCN(CC)CCCCNc1ncc2cc(-c3c(Cl)cccc3Cl)c(NC(=O)NC(C)(C)C)nc2n1 [PD-161570]             5.63

Could you now look at the following compound, please?
Request: Any idea what pIC50 was measured for Cc1[nH]c(/C=C2\C(=O)Nc3ccccc32)c(C)c1CCC(=O)O [TSU-68] ?
Response: 7.11

====

Tested on: NMuMG cells
Experiment: High-content microscopy EMT screen in TGFβ-treated NMuMG cells (FA, SF, FN, cell count)
Type: cell-based, murine
Conditions: NMuMG; cell count increased by 50% compared to 100% with 10 μM SB-431542; read-out: CCI IC50 (cell count increase)
Would you mind telling me the reported pIC50 of each entry?
One number for each entry, as −log10 of the molar value.

The cases that follow already have their pIC50 on record.
> print(dat)
                                   molecule  measured.number
1    Cc1ccc(-c2nn(C(C)(C)C)c3ncnc(N)c23)cc1             6.43
2  O=C(Nc1ccc(-c2cn[nH]c2)cc1)C1COc2ccccc2O1 (stereo not shown)             6.97

Go through the items and report each one's pIC50.
1. Cc1cccc(-c2[nH]c(C(C)(C)C)nc2-c2ccc3nccnc3c2)n1
2. Cc1cccc(-c2[nH]ncc2-c2ccc3ncccc3n2)n1
3. C[C@@H](N)[C@H]1CC[C@H](C(=O)Nc2ccncc2)CC1.Cl.Cl [Y-27632 2HCl]
4. CCN(CC)CCCCNc1ncc2cc(-c3c(Cl)cccc3Cl)c(NC(=O)NC(C)(C)C)nc2n1

Response:
6.42
7.06
5.95
6.28
